Data origin: patent US20200247855A1

# TARGET: T1, CXCL11_HUMAN (human, UniProt O14625 22-94)
# T1 chain: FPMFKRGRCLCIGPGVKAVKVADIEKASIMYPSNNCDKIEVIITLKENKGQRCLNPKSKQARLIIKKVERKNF
# ASSAY REMARKS: BLI
Label Yes when Kd is strictly below 20 nM; otherwise label No.

* P1142_AMBCA (other) KPQILQRTDHSTDSDWDPQMCPETCNPSKNISCSSECLCVTLGGGDETGTCFNMSGVDWLGHAQASDGHNDG | No
* P1074_IXORI (other) GSKESSAHQSSDDSIKAEFCDAKCTMKTDGKWTQCHGGCFCVHVGNETEGRCMRLDGDYDYPSTQPEE | Yes
* P1100_IXORI (other) GSKGSSASQSSDNSVVAKFCDTNCTINEGGKWTECKGGCFCVHVGNETVGRCMKLDGDYDYPSPKPEE | No
* P1080_IXORI (other) SAGSKGSSAPQSSGDSVVAEFCDTNCTMKKDGKWTECNGDCFCVHVGNETVGRCMRLDGDYDYTSSKTTRRNKKTRNGLCRLDRNRTTVDYPERNTREP | No
* P1078_IXORI (other) GSKGSSAQQSSHDSIKAEFCETNCTMKTGGKWTQCHGGCFCVHVGNETVGRCIKLDGDYDYPSSKHEE | Yes
* P675_IXORI (other) GSNQLSGPQSSANSNDAVFCDTNCTQGTDGAWSGCRGDCFCVHVGNSTEGRCIELIGDFDYSTPGAED | Yes
* P1090_IXORI (other) GSKELSGPESSENSIEAAFCDTNCTEGTDGVWSGCSAGCFCVHVGNSTVGRCMTFNGVDGG | Yes
